The reported measurements were obtained from patent US12366579B2.

Target: purified DPP3 (Homo sapiens, UniProt Q9NY33)
Sequence (Q9NY33 1-737): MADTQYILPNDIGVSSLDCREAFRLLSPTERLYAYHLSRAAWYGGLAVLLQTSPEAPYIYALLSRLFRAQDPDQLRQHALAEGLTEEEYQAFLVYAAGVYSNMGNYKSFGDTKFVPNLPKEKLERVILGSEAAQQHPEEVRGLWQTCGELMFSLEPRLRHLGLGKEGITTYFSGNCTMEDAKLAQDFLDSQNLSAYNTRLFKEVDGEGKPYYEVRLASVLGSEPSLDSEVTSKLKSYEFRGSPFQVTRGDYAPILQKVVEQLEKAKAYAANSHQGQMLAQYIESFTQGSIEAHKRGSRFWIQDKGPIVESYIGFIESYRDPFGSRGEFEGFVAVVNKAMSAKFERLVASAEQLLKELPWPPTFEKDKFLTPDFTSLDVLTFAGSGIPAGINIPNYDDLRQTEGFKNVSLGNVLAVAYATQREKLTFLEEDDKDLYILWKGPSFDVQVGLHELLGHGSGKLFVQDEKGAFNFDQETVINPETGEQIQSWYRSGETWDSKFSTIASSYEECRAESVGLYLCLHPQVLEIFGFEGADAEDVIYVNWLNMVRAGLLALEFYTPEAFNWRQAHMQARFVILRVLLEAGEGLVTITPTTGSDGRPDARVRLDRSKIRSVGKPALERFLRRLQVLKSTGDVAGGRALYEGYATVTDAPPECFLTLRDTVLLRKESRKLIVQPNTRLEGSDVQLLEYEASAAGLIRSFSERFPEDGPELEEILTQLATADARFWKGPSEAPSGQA
Property Label: IC50 (µM)

> print(dat)
                            chemical.smiles  property.label  observed.measurement
1  COc1ccc(-c2ncn(S(=O)(=O)c3ccc(-c4ccccc4)cc3)n2)cc1            IC50                    17

====

Molecular target: recombinant GSTP1 lysates (Homo sapiens, UniProt P09211)
Construct: FLAG (C); soluble proteome used unpurified
Sequence (P09211 whole entry): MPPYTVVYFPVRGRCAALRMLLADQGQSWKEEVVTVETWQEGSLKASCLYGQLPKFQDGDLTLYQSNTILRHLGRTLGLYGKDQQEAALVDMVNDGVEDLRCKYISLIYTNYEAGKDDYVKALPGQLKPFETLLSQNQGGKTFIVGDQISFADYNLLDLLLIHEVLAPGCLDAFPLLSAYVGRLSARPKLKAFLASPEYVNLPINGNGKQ
Assay: GSTP1 biochemical substrate assay (GSH conjugation to BDNB)
Conditions: inhibitor 30 min at 37° C.; n=3; read-out: IC50, in vitro potency against GSTP1 by GSH substrate assay
Property Label: IC50 (µM)

> print(dat)
                            chemical.smiles  observed.measurement
1  N#Cc1ccc(S(=O)(=O)n2cnc(-c3ccc(C(F)(F)F)cc3)n2)cc1                    23
2  O=S(=O)(c1ccc2ccccc2c1)n1cnc(-c2ccncc2)n1                    16

====

System: HEK293T soluble proteomes
Experiment: LC-MS chemical proteomics of probe-modified sites in cell proteomes
Format: binding, human
Conditions: FIG. 4D
Property Label: unique-modified tyrosine sites among 1,2,4-SuTEx probes (sites)

> print(dat)
                            chemical.smiles  observed.measurement
1      C#CCNC(=O)c1ccc(S(=O)(=O)n2cncn2)cc1                   391
2  C#CCNC(=O)c1ccc(S(=O)(=O)n2cnc(-c3ccccc3)n2)cc1                   445
3  C#CCNC(=O)c1ccc(S(=O)(=O)n2cnc(-c3ccc(OC)cc3)n2)cc1                   112
4  C#CCNC(=O)c1ccc(S(=O)(=O)n2cnc(-c3ccc(F)cc3)n2)cc1                   433
